SYSTEM TESTED: mouse P-gp (Mus musculus, UniProt P21447, N83Q/N87Q/N90Q)
Sequence (P21447 whole entry N83Q/N87Q/N90Q): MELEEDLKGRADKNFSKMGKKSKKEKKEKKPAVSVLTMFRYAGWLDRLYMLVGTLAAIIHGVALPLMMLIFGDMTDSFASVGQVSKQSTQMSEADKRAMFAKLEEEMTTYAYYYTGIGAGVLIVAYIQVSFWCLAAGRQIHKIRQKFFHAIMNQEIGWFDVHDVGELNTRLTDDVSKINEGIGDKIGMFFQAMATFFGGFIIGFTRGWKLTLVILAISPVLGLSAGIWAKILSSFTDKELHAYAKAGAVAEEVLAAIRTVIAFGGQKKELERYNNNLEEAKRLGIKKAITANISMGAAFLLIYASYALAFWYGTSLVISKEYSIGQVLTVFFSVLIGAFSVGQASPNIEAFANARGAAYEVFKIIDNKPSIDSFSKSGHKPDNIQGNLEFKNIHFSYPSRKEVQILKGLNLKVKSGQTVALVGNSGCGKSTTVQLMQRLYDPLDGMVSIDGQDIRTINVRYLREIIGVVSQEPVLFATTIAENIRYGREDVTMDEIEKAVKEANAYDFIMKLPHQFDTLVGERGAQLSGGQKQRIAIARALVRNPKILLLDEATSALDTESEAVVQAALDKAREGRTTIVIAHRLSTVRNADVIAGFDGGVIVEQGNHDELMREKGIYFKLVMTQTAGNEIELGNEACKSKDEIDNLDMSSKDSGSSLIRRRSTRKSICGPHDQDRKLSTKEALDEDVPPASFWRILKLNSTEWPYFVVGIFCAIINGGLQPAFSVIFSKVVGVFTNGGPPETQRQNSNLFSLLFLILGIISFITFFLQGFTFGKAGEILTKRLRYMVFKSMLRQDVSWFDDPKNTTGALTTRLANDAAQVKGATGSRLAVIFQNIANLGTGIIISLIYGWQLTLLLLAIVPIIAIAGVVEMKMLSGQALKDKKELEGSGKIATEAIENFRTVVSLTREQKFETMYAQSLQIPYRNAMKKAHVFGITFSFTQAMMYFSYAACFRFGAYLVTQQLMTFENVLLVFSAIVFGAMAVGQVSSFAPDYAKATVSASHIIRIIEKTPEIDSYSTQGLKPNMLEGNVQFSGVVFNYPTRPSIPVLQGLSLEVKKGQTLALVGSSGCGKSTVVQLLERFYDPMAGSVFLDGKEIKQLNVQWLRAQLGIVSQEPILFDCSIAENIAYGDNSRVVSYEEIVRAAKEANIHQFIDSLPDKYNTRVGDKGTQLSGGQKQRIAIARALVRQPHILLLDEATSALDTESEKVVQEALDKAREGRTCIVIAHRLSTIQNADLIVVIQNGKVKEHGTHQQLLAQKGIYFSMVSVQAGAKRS
TEST DESCRIPTION: biochemical
pIC50: −log10 of the molar value.
Tag: TRUE if measured pIC50 is not below 5, FALSE if it is.

See these solved cases before continuing.
# COMPOUND, CATEGORY
measured = [
    ("Brc1ccc(Oc2c(Br)cc(Br)cc2Br)c(Br)c1 [PBDE-100]", "FALSE"),
    ("Cl[C@H]1[C@H](Cl)[C@@H](Cl)[C@@H](Cl)[C@H](Cl)[C@H]1Cl [γ-HCH (lindane), lindane]", "FALSE"),
    ("ClC1(Cl)C2(Cl)C3(Cl)C4(Cl)C(Cl)(Cl)C5(Cl)C3(Cl)C1(Cl)C5(Cl)C24Cl (centres unmarked) [Mirex]", "TRUE"),
    ("Cl[C@H]1[C@H](Cl)[C@H](Cl)[C@@H](Cl)[C@H](Cl)[C@H]1Cl [α-HCH, α-hexachlorocyclohexane]", "FALSE"),
    ("ClC1=C(Cl)[C@]2(Cl)[C@@H]3[C@@H]4C[C@@H]([C@H]5O[C@@H]45)[C@@H]3[C@@]1(Cl)C2(Cl)Cl [Dieldrin]", "FALSE"),
]

Query string: # check: pIC50 of ClC1=C(Cl)C2(Cl)C3C4CC(C5OC45)C3C1(Cl)C2(Cl)Cl (centres unmarked) [Endrin] is greater than or equal to 5
Result string: TRUE

Query string: # check: pIC50 of COc1ccc(C(c2ccc(OC)cc2)C(Cl)(Cl)Cl)cc1 [Methoxychlor] is greater than or equal to 5
Result string: FALSE

Query string: # check: pIC50 of ClC(Cl)=C(c1ccc(Cl)cc1)c1ccc(Cl)cc1 [4,4′-DDE, dichlorodiphenyldichloroethylene] is greater than or equal to 5
Result string: FALSE

Query string: # check: pIC50 of ClC1=C(Cl)C2(Cl)C3C4C=CC(C4)C3C1(Cl)C2(Cl)Cl (centres unmarked) [Aldrin] is greater than or equal to 5
Result string: FALSE

Query string: # check: pIC50 of O=C(O)C(F)(F)C(F)(F)C(F)(F)C(F)(F)C(F)(F)C(F)(F)C(F)(F)F [PFOA, perfluorooctanoic acid] is greater than or equal to 5
Result string: FALSE

---

SYSTEM TESTED: mouse P-gp (Mus musculus, UniProt P21447, N83Q/N87Q/N90Q)
TEST DESCRIPTION: Yeast chemosensitization
Format: cell-based
PARTICULARS: P-gp-expressing yeast, +10 μM DOX
ASSAY ENDPOINT: IYeast, inhibition in the yeast cytotoxicity assay

For orientation, consider the following solved cases.
# MOLECULE, ASSAY RESULT
measured = [
    ("ClC1=C(Cl)C2(Cl)C3C4C=CC(C4)C3C1(Cl)C2(Cl)Cl (centres unmarked) [Aldrin]", "Y"),
    ("Brc1ccc(Oc2ccccc2)cc1 [PBDE-3]", "N"),
    ("Brc1c(Br)c(Br)c(Oc2c(Br)c(Br)c(Br)c(Br)c2Br)c(Br)c1Br [PBDE-209]", "N"),
    ("O=S(=O)(O)C(F)(F)C(F)(F)C(F)(F)C(F)(F)C(F)(F)C(F)(F)C(F)(F)C(F)(F)F [PFOS, perfluorooctane sulfonate]", "N"),
    ("ClC(Cl)=C(c1ccc(Cl)cc1)c1ccc(Cl)cc1 [4,4′-DDE, dichlorodiphenyldichloroethylene]", "Y"),
]

Record summary for Clc1cc(Cl)c(-c2cc(Cl)c(Cl)cc2Cl)cc1Cl [PCB-153] : reported IYeast, inhibition in the yeast cytotoxicity assay = N

Record summary for O=C(O)C(F)(F)C(F)(F)C(F)(F)C(F)(F)C(F)(F)C(F)(F)C(F)(F)F [PFOA, perfluorooctanoic acid] : reported IYeast, inhibition in the yeast cytotoxicity assay = N

Record summary for ClC1=C(Cl)C2(Cl)C3C(Cl)C=CC3C1(Cl)C2(Cl)Cl (centres unmarked) [Heptachlor] : reported IYeast, inhibition in the yeast cytotoxicity assay = N

Record summary for Clc1cc(Cl)c(-c2c(Cl)cccc2Cl)c(Cl)c1Cl [PCB-145] : reported IYeast, inhibition in the yeast cytotoxicity assay = Y

Record summary for ClC1=C(Cl)[C@]2(Cl)[C@@H]3[C@@H]4C[C@@H]([C@H]5O[C@@H]45)[C@@H]3[C@@]1(Cl)C2(Cl)Cl [Dieldrin] : reported IYeast, inhibition in the yeast cytotoxicity assay = Y

Record summary for Clc1ccccc1-c1c(Cl)c(Cl)c(Cl)c(Cl)c1Cl [PCB-142] : reported IYeast, inhibition in the yeast cytotoxicity assay = Y

Origin of the recorded values: paper PMC4846432
